Where do these numbers come from? They come from the pKa sets of Baltruschat and Czodrowski (2020).

condition-context: basic group
readout: pKa

I have this compound here, CC(CN)/C(N)=N/O (stereo unspecified) , and I need its recorded pKa.
9.15

I have this compound here, Cc1cccc(C(=O)[O-])n1 , and I need its recorded pKa.
5.8

I have this compound here, Nc1cccnn1 , and I need its recorded pKa.
5.19

I have this compound here, CN(C)CC(Cl)CCl (stereo unspecified) , and I need its recorded pKa.
7.5

I have this compound here, CCN(CC)CCSC1CCCCC1 , and I need its recorded pKa.
8.11

I have this compound here, CCN(CC)C(C)C=C(c1cccs1)c1cccs1 (stereo unspecified) , and I need its recorded pKa.
8.9

I have this compound here, CN(C)CCOC(C)(c1ccccc1)c1ccccn1 (stereo unspecified) , and I need its recorded pKa.
9.2

I have this compound here, CNc1ccc[n+](O)c1 , and I need its recorded pKa.
-2.42

I have this compound here, N#CCCNN , and I need its recorded pKa.
5.91

I have this compound here, O=C(Cc1ccccc1Nc1c(Cl)cccc1Cl)OCCCCN1CCOCC1 , and I need its recorded pKa.
8.4

I have this compound here, Cc1ccc(-c2cnc(-c3ccc(Br)cc3)o2)cc1 , and I need its recorded pKa.
0.56

I have this compound here, Nc1ccc2ccncc2c1 , and I need its recorded pKa.
6.2

I have this compound here, CCc1cc(CC)c(OC)c(C(=O)NC[C@H]2CCCN2CC)c1[O-] , and I need its recorded pKa.
9.54

I have this compound here, CNc1ccccc1 , and I need its recorded pKa.
4.8

I have this compound here, CCCOC(=O)c1ccc(N)cc1 , and I need its recorded pKa.
2.49

I have this compound here, Cc1nc2c(O)ccc(O)c2n1C , and I need its recorded pKa.
6.47

I have this compound here, COCc1nc2c(n1C)C(=O)c1ncnc([O-])c1C2=O , and I need its recorded pKa.
6.17

I have this compound here, O=[PH]([O-])C(NCc1ccccn1)c1ccccc1O (stereo unspecified) , and I need its recorded pKa.
8.08

I have this compound here, C[n+]1ccc(-c2nc3ccccc3[nH]2)cc1 , and I need its recorded pKa.
2.26

I have this compound here, CC[NH+](CC)CCNc1cc(C)nc(Nc2ccc(Cl)cc2)n1 , and I need its recorded pKa.
6.65

I have this compound here, CN(C)CC(P(=O)([O-])[O-])P(=O)([O-])[O-] , and I need its recorded pKa.
8.98

I have this compound here, Cc1ccccc1C(=NCCCC[NH+](C)C)c1ccccc1C , and I need its recorded pKa.
5.18

I have this compound here, Ic1cccc(C2NCCS2)c1 (stereo unspecified) , and I need its recorded pKa.
4.93

I have this compound here, NC[C@@H](O)[C@H]1NC(N)=N[C@@H]1C(=O)[O-] , and I need its recorded pKa.
11.9

I have this compound here, NCC(O)c1ccccc1 (stereo unspecified) , and I need its recorded pKa.
8.94

I have this compound here, C(=C\C[NH+]1CCCCC1)/CN1CCCCC1 , and I need its recorded pKa.
7.9

I have this compound here, CCN(CC)CC(O)CN(CC)CC , and I need its recorded pKa.
9.8

I have this compound here, OCCN(CCO)Cc1nc2ccccc2[nH]1 , and I need its recorded pKa.
5.93

I have this compound here, S=C(/N=N/c1ccccc1)NNc1ccccc1 , and I need its recorded pKa.
4.64

I have this compound here, CN(C)/C=N/c1ccccc1O , and I need its recorded pKa.
7.41

I have this compound here, Cc1cc(N)ncn1 , and I need its recorded pKa.
6.25
